# tgt: hMC3-R (Homo sapiens, UniProt P41968)
# Construct: expressed in transfected cells
# Sequence (P41968 whole entry): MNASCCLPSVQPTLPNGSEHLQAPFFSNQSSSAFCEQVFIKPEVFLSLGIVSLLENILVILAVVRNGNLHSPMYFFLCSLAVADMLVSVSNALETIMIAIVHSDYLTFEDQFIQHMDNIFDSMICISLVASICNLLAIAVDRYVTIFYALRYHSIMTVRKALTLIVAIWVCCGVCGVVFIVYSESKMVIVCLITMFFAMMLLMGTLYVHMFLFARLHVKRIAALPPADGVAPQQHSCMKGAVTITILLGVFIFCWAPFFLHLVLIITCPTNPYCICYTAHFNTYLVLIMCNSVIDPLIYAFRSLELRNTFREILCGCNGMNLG
# experimental protocol: competitive inhibition binding assay, 125I-NDP-alpha-MSH, hMC3-R membranes
# cond: 1 μM test peptide; 0.4 nM 125I-NDP-alpha-MSH; hMC3-R membranes
Square brackets hold non-standard residues; d marks the D form. Ends that are not written are not given here. Nle = CCCC[C@H](N)C(=O)O
observation type: % Inhibition at 1 μM at Melanocortin Receptor 3 (%)
Provide the reading as a plain figure in %.

Can you look up the measured % Inhibition at 1 μM at Melanocortin Receptor 3 of Tyr-Val-Nle-Gly-His-Cys-Phe-Arg-Trp-Asp-Arg-Phe-NH2 (YV[Nle]GHCFRWDRF-NH2; numbers in words are those of the source; also: oxorhenium(V) N3S1 chelate (Re=O) with Cys) [4-7] for me? 17

Can you look up the measured % Inhibition at 1 μM at Melanocortin Receptor 3 of Tyr-Val-Nle-Gly-His-D-Phe-Arg-Cys-Trp-Asp-Arg-Phe-NH2 (YV[Nle]GH[dF]RCWDRF-NH2; also: Re complex) [3-5] for me? 45

Can you look up the measured % Inhibition at 1 μM at Melanocortin Receptor 3 of Ac-Ser-Tyr-Ser-Nle-Glu-His-Phe-Arg-Trp-Gly-D-Cys-Lys-Pro-Val-NH2 (chain 1 EHFRWG; chain 2 CKPV; not fully specified; Ac-Ser-Tyr-Ser-Nle N-term; D-residue; amide; printed: Glu-His-Phe-Arg-Trp-Gly-; printed: Cys-Lys-Pro-Val-) [2-4] for me? 27

Can you look up the measured % Inhibition at 1 μM at Melanocortin Receptor 3 of Tyr-Val-Cys-Nle-Gly-His-Phe-Arg-Trp-Asp-Arg-Phe-NH2 (YVC[Nle]GHFRWDRF-NH2; not fully specified (bridges); printed as Tyr-Val-Cys-Nle-Gly-His-Phe-Arg-Trp-Asp-Arg-Phe-NH2; numbers in words are those of the source; also: oxorhenium(V) N3S1 chelate (Re=O) with Cys) [4-10] for me? 10

Can you look up the measured % Inhibition at 1 μM at Melanocortin Receptor 3 of Ac-Ser-Tyr-Ser-Nle-Glu-His-Phe-Arg-Trp-Gly-Lys-Gly-Cys-Val-NH2 (Ac-SYS[Nle]EHFRWGKGCV-NH2; not fully specified (bridges); printed as Ac-Ser-Tyr-Ser-Nle-Glu-His-Phe-Arg-Trp-Gly-Lys-Gly-Cys-Val-NH2; numbers in words are those of the source; also: oxorhenium(V) N3S1 chelate (Re(V)=O)) [1-2] for me? 6

Can you look up the measured % Inhibition at 1 μM at Melanocortin Receptor 3 of Tyr-Val-Nle-Gly-Cys-D-Phe-Arg-Trp-Asp-Arg-Phe-NH2 (YV[Nle]GC[dF]RWDRF-NH2; not fully specified (bridges); printed as Tyr-Val-Nle-Gly-Cys-D-Phe-Arg-Trp-Asp-Arg-Phe-NH2; numbers in words are those of the source; also: oxorhenium(V) N3S1 chelate complex (Re=O)) [5-7] for me? 70

Can you look up the measured % Inhibition at 1 μM at Melanocortin Receptor 3 of Ac-Ser-Tyr-Ser-Nle-Glu-His-Phe-Arg-Trp-D-Cys-Gly-Lys-Pro-Val-NH2 (chain 1 Ac-SYS[Nle]EHFRW; chain 2 [dC]GKPV-NH2; not fully specified (bridges); numbers in words are those of the source; also: oxorhenium(V) N3S1 chelate (Re(V)=O)) [2-5] for me? 0

Can you look up the measured % Inhibition at 1 μM at Melanocortin Receptor 3 of Ac-Ser-Tyr-Ser-Nle-Glu-His-D-Cys-Phe-Arg-Trp-Gly-Lys-Pro-Val-NH2 (CFRWGKPV; Ac-Ser-Tyr-Ser-Nle-Glu-His N-term; D-residue; amide; printed: Cys-Phe-Arg-Trp-Gly-Lys-Pro-Val-) [2-8] for me? 0

Can you look up the measured % Inhibition at 1 μM at Melanocortin Receptor 3 of Tyr-Val-Nle-Gly-His-Cys-Arg-Trp-Asp-Arg-Phe-NH2 (YV[Nle]GHCRWDRF-NH2; numbers in words are those of the source; also: oxorhenium(V) N3S1 chelate (Re=O) with Cys) [5-6] for me? 26

Can you look up the measured % Inhibition at 1 μM at Melanocortin Receptor 3 of Ac-Ser-Tyr-Ser-Nle-Glu-His-Phe-Arg-D-Cys-Trp-Gly-Lys-Pro-Val-NH2 (chain 1 Ac-SYS[Nle]EHFR; chain 2 [dC]WGKPV-NH2; not fully specified (bridges); numbers in words are those of the source; also: oxorhenium(V) N3S1 chelate (Re(V)=O)) [2-6] for me? 2

Can you look up the measured % Inhibition at 1 μM at Melanocortin Receptor 3 of Tyr-Val-Nle-Gly-His-D-Phe-Arg-Trp-Asp-Arg-Cys-NH2 (YV[Nle]GH[dF]RWDRC-NH2; numbers in words are those of the source; also: oxorhenium(V) N3S1 chelate complex (Re=O)) [5-1] for me? 92

Can you look up the measured % Inhibition at 1 μM at Melanocortin Receptor 3 of Tyr-Val-Nle-Gly-Cys-His-Phe-Arg-Trp-Asp-Arg-Phe-NH2 (YV[Nle]GCHFRWDRF-NH2; not fully specified (bridges); printed as Tyr-Val-Nle-Gly-Cys-His-Phe-Arg-Trp-Asp-Arg-Phe-NH2; numbers in words are those of the source; also: oxorhenium(V) N3S1 chelate (Re=O) with Cys) [4-8] for me? 33

Can you look up the measured % Inhibition at 1 μM at Melanocortin Receptor 3 of Tyr-Val-Nle-Gly-His-Phe-Arg-Trp-Asp-Arg-Cys-Phe-NH2 (YV[Nle]GHFRWDRCF-NH2; numbers in words are those of the source; also: oxorhenium(V) N3S1 chelate (Re=O) with Cys) [4-2] for me? 49
